test system: HepG2 cells; assay: Antiproliferative activity, 48 h treatment, ATPlite luminescence assay, HepG2; type: cell-based, human; details: HepG2, 48 h treatment; read-out: Antiproliferative activity (IC50 ± S.D.) HepG2 48 h treatment
ENDPOINT LABEL: IC50

**Query** State the recorded IC50 for this entry: CO/C1=C\C(C)=C\[C@@H](C)[C@@H](O)[C@@H](C)C/C(C)=C/C=C/[C@H](OC)[C@@H]([C@@H](C)[C@@H](O)[C@H](C)[C@@]2(O)C[C@@H](O)[C@H](C)[C@@H](C(C)C)O2)OC1=O [Bafilomycin A1, reference compound]
**Result** < 0.006 µM

More entries:
**Query** State the recorded IC50 for this entry: N.N.[Cl][Pt][Cl] [Cisplatin, reference compound]
**Result** > 25 µM

----------
biological target: Vacuolar ATPase in bovine chromaffin cells membranes (BCG) (Bos taurus, UniProt P23956+Q29466); assay: Vacuolar ATPase inhibition in bovine chromaffin cells membranes (BCG); details: read-out: ATPase activity (IC50) BCG; bovine chromaffin cell membranes
Sequence (P23956 whole entry, looked up): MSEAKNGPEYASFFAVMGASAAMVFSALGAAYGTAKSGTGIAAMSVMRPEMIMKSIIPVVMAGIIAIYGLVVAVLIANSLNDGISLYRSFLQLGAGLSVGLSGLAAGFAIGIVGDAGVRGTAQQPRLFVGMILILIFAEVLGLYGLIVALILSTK
Sequence (Q29466 whole entry, looked up): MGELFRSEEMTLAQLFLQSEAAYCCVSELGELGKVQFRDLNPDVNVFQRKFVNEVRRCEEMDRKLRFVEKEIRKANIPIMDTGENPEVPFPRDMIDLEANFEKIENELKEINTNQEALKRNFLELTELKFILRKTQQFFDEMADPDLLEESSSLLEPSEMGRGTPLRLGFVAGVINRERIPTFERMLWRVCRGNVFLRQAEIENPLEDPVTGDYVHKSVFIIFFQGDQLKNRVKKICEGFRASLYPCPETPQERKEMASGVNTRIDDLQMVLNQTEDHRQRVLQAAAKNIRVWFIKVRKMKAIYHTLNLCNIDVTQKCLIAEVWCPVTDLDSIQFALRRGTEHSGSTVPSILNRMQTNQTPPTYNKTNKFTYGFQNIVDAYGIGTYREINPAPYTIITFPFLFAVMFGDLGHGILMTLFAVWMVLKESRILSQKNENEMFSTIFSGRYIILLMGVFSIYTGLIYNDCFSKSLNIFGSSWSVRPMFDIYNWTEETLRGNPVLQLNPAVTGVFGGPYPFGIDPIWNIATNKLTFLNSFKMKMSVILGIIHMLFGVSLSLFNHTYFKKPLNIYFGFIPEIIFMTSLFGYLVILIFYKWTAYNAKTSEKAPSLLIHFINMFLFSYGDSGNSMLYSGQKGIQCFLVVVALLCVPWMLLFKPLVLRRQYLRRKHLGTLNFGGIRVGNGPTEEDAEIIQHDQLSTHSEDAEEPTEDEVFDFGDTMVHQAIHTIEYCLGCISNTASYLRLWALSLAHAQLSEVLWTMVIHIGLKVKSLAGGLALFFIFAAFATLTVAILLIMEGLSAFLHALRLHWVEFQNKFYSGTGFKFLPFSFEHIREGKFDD
Counter-ions that a name gives are not always drawn.
Note that class boundaries on IC50 are bottom end = under 400 nM, midrange = from 400 nM up to 600 nM, top end = 600 nM and over

**Query** Bin? CCOC(=O)c1[nH]c2cc(OC)c(OC)cc2c1-c1ccccc1 [Example 4]
**Result** bottom end

**Query** Also need COc1ccc(-c2c(C#N)n(CCN(C)C)c3cc(OC)c(OC)cc23)cc1 [Example 18, hydrochloride] , thanks.
**Result** midrange

**Query** Also need COC(=O)c1[nH]c2cc(OC)c(OC)cc2c1-c1ccc(OC)cc1 [Example 1] , thanks.
**Result** top end

**Query** Also need COc1ccc(-c2c(-c3nnco3)[nH]c3cc(OC)c(OC)cc23)cc1 [Example 26] , thanks.
**Result** top end

----------
# IC50 per record follows
target: Vacuolar ATPase in bovine chromaffin cells membranes (BCG) (Bos taurus, UniProt P23956+Q29466); experiment: Vacuolar ATPase inhibition in bovine chromaffin cells membranes (BCG); conditions: read-out: ATPase activity (IC50) BCG; bovine chromaffin cell membranes
Counter-ions that a name gives are not always drawn.
Just the number plus its unit, please.

**Query** State the recorded IC50 for this entry: COC(=O)c1c(-c2ccc(OC)cc2)c2cc(OC)c(OC)cc2n1CCO [Example 12]
**Result** 247 nM

**Query** Also need COc1ccc(-c2c(C#N)[nH]c3cc(OC)c(OC)cc23)cc1 [Example 17] , thanks.
**Result** 273 nM

**Query** Also need COc1ccc(-c2c(-c3ncn[nH]3)[nH]c3cc(OC)c(OC)cc23)cc1 [Example 23] , thanks.
**Result** 470 nM

**Query** Also need COc1ccc(-c2c3n(c4cc(OC)c(OC)cc24)CCNC3=O)cc1 [Example 27] , thanks.
**Result** 248 nM

More entries:
**Query** State the recorded IC50 for this entry: COc1ccc(-c2c3n(c4cc(OC)c(OC)cc24)CCNC3)cc1 [Example 28, hydrochloride]
**Result** 1270 nM

**Query** Also need COC(=O)c1[nH]c2cc(OC)c(OC)cc2c1-c1ccccc1 [Example 3] , thanks.
**Result** 628 nM
